Data origin: PubChem BioAssay AID1508600

Assay: Components of the Cytosolic LPS Sensing Pathway: Gene Identification via Genome-wide siRNA Screen;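 further: robust z of the log signal after scaling to non-targeting control siRNA wells of the plate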
Conditions: RAW264.7 macrophages, IL-1a HTRF, actives lie on both sides, screened at 100 nM (by protocol), cells primed 5 h with Pam3CSK4 first
Experimental: Non-canonical inflammasome activation by cytosolic LPS is a critical component of the host response to Gram-negative bacterial infection, however we lack a comprehensive understanding of the cellular processes that control this pathway. […] Lipofectamine RNAiMAX Transfection Reagent ([…]; Invitrogen) was added in […] serum-free, antibiotic-free media to plate wells using a Thermo Scientific Matrix WellMate and Microplate Stacker. […] The plates were read on an EnVision plate reader (PerkinElmer). […]
The campaign covered roughly 53,000 sequences. About 3,700 (7%) were called active. The full list was thinned out, with actives kept by preference.
property: z-score

> print(dat)
                                 biosequence   experimentalvalue
 1       GCUGCUGGAGUGCAACUAATT against Tradd    0.391 (inactive)
 2       GGUCAAUGAACCAUCCCACTT against Padi6   -0.983 (inactive)
 3     GGAAUUUUGCCAGCAAAUGTT against Edaradd    0.624 (inactive)
 4        GGAAAGCUUGAAUGUUGAGTT against Mup3     1.44 (inactive)
 5       GGGAACAGGAGAAAACGGATT against Bnipl      1.2 (inactive)
 6    GGAGACUGUCAGAAAGUUATT against Olfr1164   -0.769 (inactive)
 7        CCAUUUACCUCAUAGGACCTT against Crb3   -0.239 (inactive)
 8       GGACCAAGCUGUUAUUAACTT against Dhodh     0.46 (inactive)
 9        CCGAUCACUCAUGGUUGACTT against Sra1    0.565 (inactive)
10      GAAUGUCUGAGCAAGGAGGTT against Arpp21    0.227 (inactive)
11     GCAAGCACGGAGAACCAAUTT against Selenoi   -0.212 (inactive)
12        GCCGACUGGUUAAAUACAUTT against Nme3       5.79 (active)
13     GGGCUGAUGCUUAAACAAATT against Vmn1r72      -2.19 (active)
14    GGAUUGUAAUAAUGGAGCCTT against H2-M10.4       2.94 (active)
15    CCGCCUCGUACAUGAUAUUTT against Mrgpra2b    0.653 (inactive)
16      GGUUGUGACAAUGUGAUCCTT against Coro1a      -2.22 (active)
17       GGAUACAAAUCCAGAUUCUTT against Pex26   -0.982 (inactive)
18        GGAAACUUUUACUUCACAGTT against P3h1   -0.322 (inactive)
19       GGCUCGAUUACUGAGUACATT against Bnip2    0.884 (inactive)
20       GCAUAAAGCAGUCAUGCUUTT against Gskip   -0.989 (inactive)
21       GCAUACAACUGUUCAUAGATT against Nsrp1   -0.476 (inactive)
22  GGCCCUUACAGAGUCUGGATT against B930095G15Rik    0.833 (inactive)
23        GGAACUGACUGCCUAUUCCTT against Gnb3     1.08 (inactive)
24       CCAGGCAGCUAAACUGUGUTT against Tex11    -0.11 (inactive)
25      GGCAACAUGCGGACAACAUTT against Trim14    -0.42 (inactive)
26        GGUUUCCAUGGUAACGUGGTT against Tns1       2.24 (active)
27        GGCUCAGUCCCAUCAGCAUTT against Gdf7    0.524 (inactive)
28      GGCAAAGUACUACGUGCAGTT against Sh3bp5   -0.225 (inactive)
29  GGCCUUCUAAAGCUGUGAUTT against 6330403K07Rik       -2.7 (active)
30      GAAAAAAAUCCGUUCCCUCTT against Mrpl33    0.257 (inactive)
31        GGAAGUUAGCUCCUAAAUATT against Pirt   -0.383 (inactive)
32       CUACGUGCUAGCUCAAGGATT against Mmp28     -1.1 (inactive)
33     GGUGUCUUUUUUUACAAGATT against Tnfsf11    0.233 (inactive)
34      GGAACUGAAGGGCAAUAUCTT against Kifc5b     1.99 (inactive)
35     CUCUAUCUCAUUGCAGUCCTT against Olfr671  -0.0809 (inactive)
36      GGAAUAUGCCCAAGUUUUUTT against Ctnna1       2.86 (active)
37        GGACACUAUAAGAAAGGAATT against Fnta    0.708 (inactive)
38     GGUCUUCCAAGGUCAGAAGTT against Cyp2d10      1.5 (inactive)
39      GGCAACUGGAGAUGUGUGUTT against Lpgat1   -0.361 (inactive)
40      GGGUUGCUACUCACAAUGUTT against Syngr2    0.244 (inactive)
41       GGUCAAGGUAGGCAAUGAATT against Stau2      -2.32 (active)
42       GCCUAAGAACGAUGACACUTT against Surf2    0.179 (inactive)
43       CCCUUGCUACAAUGAUGCCTT against Mfge8       2.56 (active)
44      CCCUAGAAUUAUAUCCUGUTT against Col4a1   -0.494 (inactive)
45       CCCUAAGGAGUUUUGCGUUTT against Ikzf4     1.58 (inactive)
46      CGAAGUGGUCAAGUUCUCUTT against Fbxo17      -2.09 (active)
47         GGCUAUUGUUGGUAGAACUTT against Dek    0.441 (inactive)
48       GGUUUUCCCUCCAGAUGAGTT against Mtch1   -0.336 (inactive)
49     GGUGUGGAACGACAAACAGTT against Pla2g4f       -2.8 (active)
50      CCAGCCAGACUGAAAAAGCTT against Stmnd1   -0.652 (inactive)
